Listed here are compounds together with their documented pKi.
Biological target: full-length hepatitis C viral protein NS3•4A (Hepatitis C virus genotype 1a)
Construct: hexa-histidine (N); made in house; host or cells: Sf9 insect cells (baculovirus, pVL1392)
Test: biochemical
Design: species or system HCV sub-type strain 1a
Conditions: Enzyme Assay 2 (HCV NS3 Peptide Cleavage Assay) activity, apparent Ki class
pKi: −log10 of the molar value.

| compound | pKi |
| --- | --- |
| CCC[C@H](NC(=O)[C@@H]1C[C@]2(CC(c3cccc(Cl)c3)=NO2)CN1C(=O)[C@@H](NC(=O)CC1CCC2(CC1)OCCO2)C(C)(C)C)C(=O)C(=O)NC1CC1 [Compound 445] | > 7.00 |
| CCC[C@H](NC(=O)[C@@H]1C[C@]2(CC(c3cc(Cl)c(OC)cc3OC)=NO2)CN1C(=O)[C@@H](NC(=O)CC1(C)CCOCC1)C(C)(C)C)C(=O)C(=O)NC1CC1 [Compound 286] | > 7.00 |
| CC(C)(C)[C@H](NC(=O)CC1CCCCC1)C(=O)N1C[C@@]2(CC(c3cccc(Cl)c3)=NO2)C[C@H]1C(=O)N[C@@H](CC1CCC1)C(=O)C(=O)NC1CC1 [Compound 23] | 6.30 to 7.00 |
| CCC[C@H](NC(=O)[C@@H]1C[C@]2(CC(c3cccc(Cl)c3)=NO2)CN1C(=O)[C@@H](NC(=O)CC1CCCCC1)C(C)(C)C)C(=O)C(=O)N1CCC[C@@H]1COC [Compound 347] | < 6.30 |

# context switch: different compound, same pKi
Look up and report pKi, with full-length hepatitis C viral protein NS3•4A (Hepatitis C virus genotype 1a) as system, for CCC[C@H](NC(=O)[C@@H]1C[C@]2(CC(c3cc(C)c(OC)c(C)c3)=NO2)CN1C(=O)[C@@H](NC(=O)OC1CCCC1)C(C)(C)C)C(=O)C(N)=O [Compound 760]
> 7.00

* * *

Target: HCV NS3 protease domain (Hepatitis C virus genotype 1b, UniProt Q9WMX2)
Construct: The first 181 amino acids of NS3 (residues 1027-1207 of the viral polyprotein); hexa-histidine (C); made in house; host or cells: E. coli BL21/DE3 pLysS
Test: biochemical
Details: Enzyme Assay 1 (HCV NS3 Protease Domain Peptide Cleavage Assay) activity, apparent Ki class
measured_property: Ki

Past entries and their recorded results:
| compound | result |
| --- | --- |
| CCC[C@H](NC(=O)[C@@H]1C[C@]2(CC(c3ccccc3)=NO2)CN1C(=O)[C@@H](NC(C)=O)C(C)(C)C)C(=O)C(=O)NC1CC1 [Compound 228] | > 500 nM |
| CCC[C@H](NC(=O)[C@@H]1C[C@]2(CC(c3ccc(F)c(C)c3)=NO2)CN1C(=O)[C@@H](NC(=O)O[C@H]1CCOC1)C(C)(C)C)C(=O)C(=O)NC1CC1 [Compound 555] | 100 to 500 nM |

# context switch: different compound, same Ki
Assign Ki to the following record: CCC[C@H](NC(=O)[C@@H]1C[C@]2(CC(c3ccccc3C#N)=NO2)CN1C(=O)[C@@H](NC(=O)CC1CCCCC1)C(C)(C)C)C(=O)C(=O)NC1CC1 [Compound 28]
> 500 nM

* * *

Target: HCV NS3 protease domain (Hepatitis C virus genotype 1b, UniProt Q9WMX2)
Construct: The first 181 amino acids of NS3 (residues 1027-1207 of the viral polyprotein); hexa-histidine (C); made in house; host or cells: E. coli BL21/DE3 pLysS
Assay: biochemical
Conditions: Enzyme Assay 1 (HCV NS3 Protease Domain Peptide Cleavage Assay) activity, apparent Ki class
measured_property: Ki

Assign Ki to the following record: CCC[C@H](NC(=O)[C@@H]1C[C@]2(CC(c3cccc(Cl)c3)=NO2)CN1C(=O)[C@@H](NC(=O)OCc1cccc(C)c1)C(C)(C)C)C(=O)C(=O)NC1CC1 [Compound 174]
0.1 to 0.5 µM

Assign Ki to the following record: CCC[C@H](NC(=O)[C@@H]1C[C@]2(CC(c3cccc(Cl)c3)=NO2)CN1C(=O)[C@@H](NC(=O)CC1CCCCC1)C(C)(C)C)C(=O)C(=O)N(C)C [Compound 253]
> 0.5 µM

Assign Ki to the following record: CCC[C@H](NC(=O)[C@@H]1C[C@]2(CC(c3cccc(Cl)c3)=NO2)CN1C(=O)[C@@H](NC(=O)Cc1cc(F)ccc1C)C(C)(C)C)C(=O)C(=O)NC1CC1 [Compound 155]
> 0.5 µM

Assign Ki to the following record: CCC[C@H](NC(=O)[C@@H]1C[C@]2(CC(c3ccccc3)=NO2)CN1C(=O)NCc1cc(OC)c(OC)c(OC)c1)C(=O)C(=O)NC1CC1 [Compound 367]
> 0.5 µM

Assign Ki to the following record: CCC[C@H](NC(=O)[C@@H]1C[C@]2(CC(c3cccc(Cl)c3)=NO2)CN1C(=O)[C@@H](NC(=O)NCC(C)C)C(C)(C)C)C(=O)C(=O)NC1CC1 [Compound 156]
< 0.1 µM

* * *

Target: HCV NS3 protease domain (Hepatitis C virus genotype 1b, UniProt Q9WMX2)
Construct: The first 181 amino acids of NS3 (residues 1027-1207 of the viral polyprotein); hexa-histidine (C); made in house; host or cells: E. coli BL21/DE3 pLysS
Experiment: biochemical
Conditions: Enzyme Assay 1 (HCV NS3 Protease Domain Peptide Cleavage Assay) activity, apparent Ki class
measured_property: Ki

| molecule | experimental_target | measured_property | result |
| --- | --- | --- | --- |
| CCC[C@H](NC(=O)[C@@H]1C[C@]2(CC(c3cc(F)cc(Cl)c3)=NO2)CN1C(=O)[C@@H](NC(=O)CC1CCCCC1)C(C)(C)C)C(=O)C(=O)NC1CC1 [Compound 95] | HCV NS3 protease domain (Hepatitis C virus genotype 1b, UniProt Q9WMX2) | Ki | 100 to 500 nM |
| CCC[C@H](NC(=O)[C@@H]1C[C@]2(CC(c3ccc(O)cc3)=NO2)CN1C(=O)[C@@H](NC(=O)O[C@H]1CCOC1)C(C)(C)C)C(=O)C(=O)NC1CC1 [Compound 530] | HCV NS3 protease domain (Hepatitis C virus genotype 1b, UniProt Q9WMX2) | Ki | > 500 nM |

Look up and report Ki, with HCV NS3 protease domain (Hepatitis C virus genotype 1b, UniProt Q9WMX2) as system, for CCC[C@H](NC(=O)[C@@H]1C[C@]2(CC(c3cc(F)cc(C(F)(F)F)c3)=NO2)CN1C(=O)[C@@H](NC(=O)O[C@H]1CCOC1)C(C)(C)C)C(=O)C(=O)NC1CC1 [Compound 498]
100 to 500 nM

* * *

Target: full-length hepatitis C viral protein NS3•4A (Hepatitis C virus genotype 1a, UniProt P27958)
Construct: hexa-histidine (N); made in house; host or cells: Sf9 insect cells (baculovirus, pVL1392)
Assay: biochemical
Design: species or system HCV sub-type strain 1a
Settings: Enzyme Assay 2, HCV NS3 Peptide Cleavage Assay, apparent Ki
pKi: −log10 of the molar value.
measured_property: pKi

Past entries and their recorded results:
| compound | pKi |
| --- | --- |
| CCC[C@H](NC(=O)[C@@H]1C[C@]2(CC(c3cc(C)c(OCC)c(C)c3)=NO2)CN1C(=O)[C@@H](NC(=O)[C@@H]1C[C@H]1c1ccc(F)cc1)C(C)(C)C)C(=O)C(=O)NC [Compound 995] | > 7.00 |
| CCC[C@H](NC(=O)[C@@H]1C[C@]2(CC(c3cccc(Cl)c3)=NO2)CN1C(=O)[C@@H](NC(=O)[C@@H]1C[C@H]1C1CCCC1)C(C)(C)C)C(=O)C(=O)NC1CC1 [Compound 954] | > 7.00 |
| CCC[C@H](NC(=O)[C@@H]1C[C@]2(CC(c3cccc(Cl)c3)=NO2)CN1C(=O)[C@@H](NC(=O)[C@H]1C[C@@H]1C1CCCC1)C(C)(C)C)C(=O)C(=O)NC1CC1 [Compound 953] | > 7.00 |

Assign pKi to the following record: CCC[C@H](NC(=O)[C@@H]1C[C@]2(CC(c3cc(C)c(OCC)c(C)c3)=NO2)CN1C(=O)[C@@H](NC(=O)[C@@H]1C[C@H]1c1ccc(F)cc1)C(C)(C)C)C(=O)C(=O)NC1CC1 [Compound 994]
> 7.00

Assign pKi to the following record: CCOc1c(C)cc(C2=NO[C@]3(C2)C[C@@H](C(=O)N[C@@H](CC2CC2)C(=O)C(=O)NC)N(C(=O)[C@@H](NC(=O)[C@H]2C[C@@H]2c2ccccn2)C(C)(C)C)C3)cc1C [Compound 986]
6.30 to 7.00

* * *

Listed here are compounds together with their documented Ki.
Molecular target: full-length hepatitis C viral protein NS3•4A (Hepatitis C virus genotype 1a)
Construct: hexa-histidine (N); made in house; host or cells: Sf9 insect cells (baculovirus, pVL1392)
Assay: biochemical
Design: species or system HCV sub-type strain 1a
Settings: Enzyme Assay 2 (HCV NS3 Peptide Cleavage Assay) activity, apparent Ki class

| compound | measured_property | result |
| --- | --- | --- |
| CCC[C@H](NC(=O)[C@@H]1C[C@]2(CC(c3nccc4ccccc34)=NO2)CN1C(=O)[C@@H](NC(=O)OC1CCCC1)C(C)(C)C)C(=O)C(=O)NC1CC1 | Ki | < 100 nM |
| COc1c(C)cc(C2=NO[C@]3(C2)C[C@@H](C(=O)NC(CC2CC2)C(=O)C(N)=O)N(C(=O)[C@@H](NC(=O)OC2CCCC2)C(C)(C)C)C3)cc1C (stereo partly drawn) | Ki | 100 to 500 nM |
| CCC[C@H](NC(=O)[C@@H]1C[C@]2(CC(c3cccc(Cl)c3)=NO2)CN1C(=O)[C@@H](NC(=O)CC1CCCCC1)C(C)(C)C)C(=O)C(=O)NC1CCC1 | Ki | 100 to 500 nM |
| CC(C)(C)[C@H](NC(=O)CC1CCOCC1)C(=O)N1C[C@@]2(CC(c3cccc(Cl)c3)=NO2)C[C@H]1C(=O)NC(CC1CCC1)C(=O)C(=O)NC1CC1 (stereo partly drawn) | Ki | 100 to 500 nM |

Look up and report Ki, with full-length hepatitis C viral protein NS3•4A (Hepatitis C virus genotype 1a) as system, for CCC[C@H](NC(=O)[C@@H]1C[C@]2(CC(c3cc(Cl)c(OC)cc3OC)=NO2)CN1C(=O)[C@@H](NC(=O)CC(C)(C)C)C(C)(C)C)C(=O)C(=O)NC1CC1
< 100 nM

Look up and report Ki, with full-length hepatitis C viral protein NS3•4A (Hepatitis C virus genotype 1a) as system, for CCC[C@H](NC(=O)[C@@H]1C[C@]2(CC(c3cc(C)c(OC)c(C)c3)=NO2)CN1C(=O)[C@@H](NC(=O)CC(C)(C)C)C(C)(C)C)C(=O)C(N)=O
< 100 nM

Look up and report Ki, with full-length hepatitis C viral protein NS3•4A (Hepatitis C virus genotype 1a) as system, for CCC[C@H](NC(=O)[C@@H]1C[C@]2(CC(c3cccc(Cl)c3)=NO2)CN1C(=O)[C@@H](NC(=O)CC1CCCCC1)C(C)(C)C)C(=O)C(=O)N(C)CC
> 500 nM
